# Tested on: panel of nearly 500 cancer cell lines
# measurementDescription: Cancer Cell Line Encyclopedia profiling, 3-day CellTiter-Glo
# Format: cell-based
# runParameters: Homo sapiens, HEC-1B
quantityMeasured: IC50

# entrySmiles, valueReported
records = [
    ("CN(C)C(=O)c1cc2cnc(Nc3ccc(N4CCNCC4)cn3)nc2n1C1CCCC1", "> 8 µM"),
]

====

# Tested on: panel of nearly 500 cancer cell lines
# measurementDescription: Cancer Cell Line Encyclopedia profiling, 3-day CellTiter-Glo
# Format: cell-based
# runParameters: Homo sapiens, LS-123
pEC50: −log10 of the molar value.

# compound, testedSystem, pEC50
measured = [
    ("CN(C)C(=O)c1cc2cnc(Nc3ccc(N4CCNCC4)cn3)nc2n1C1CCCC1 [Ribociclib]", "panel of nearly 500 cancer cell lines", "< 5.10"),
    ("CC(=O)c1c(C)c2cnc(Nc3ccc(N4CCNCC4)cn3)nc2n(C2CCCC2)c1=O [Palbociclib, reference compound]", "panel of nearly 500 cancer cell lines", "< 5.10"),
]
